# test summary: AUC (0 to t) in C57BL/6 mouse at 1 mg/kg, iv
# Type: ADME, organism-based
# Set-up: dose 1 mg/kg
# test context: in vivo
reported endpoint: AUC(0-t) (ng·h/mL)
Express the result in ng·h/mL but write the number alone.

O=C(Nc1c2c(cc3c1CCC3)CCC2)NS(=O)(=O)/C=C/c1nccs1 = 16500

Param item = CC(C)(O)c1coc(S(=O)(=O)NC(=O)Nc2c3c(cc4c2CCC4)CCC3)c1 ; retrieve measured AUC(0-t).
20700

* * *

# test summary: MRT in C57BL/6 mouse at 1 mg/kg, iv
# Assay type: ADME, organism-based
# test context: in vivo
reported endpoint: MRT
The answer consists of two parts: a number and, after it, its unit.

CC(C)(O)c1coc(S(=O)(=O)NC(=O)Nc2c3c(cc4c2CCC4)CCC3)c1 = 3.22 h

Now let's try a different one.
Param item = O=C(Nc1c2c(cc3c1CCC3)CCC2)NS(=O)(=O)/C=C/c1nccs1 ; retrieve measured MRT.
3.23 h
